Reference source for all entries: PubChem BioAssay (NCI)

tested on: U251 CNS; assay: NCI tumour cell line growth inhibition, 48 h
*1 amine or outer side, *2 acyl side, *3 side chain or, on linkers, in order; H or OH if unused. Where a SMILES comes first, the peptide text is derived from it. CO = O=C([*:1])[*:2]
Recorded measurements of TGI, one per entry

compound: O=C(/C=C(\O)C(=O)O)/C=C(\O)c1ccccc1Cl
tgt: U251 CNS
TGI: > 100 µM

compound: CC1=C(C#N)C(=O)N(/N=C/c2ccc(Cl)cc2)C(=O)/C1=c1\o/c(=C2/C(=O)N(/N=C/c3ccc(Cl)cc3)C(=O)C(C#N)=C2C)c2nccnc12
tgt: U251 CNS
TGI: > 100 µM

compound: c1ccc2c(c1)n1c(N3CCOCC3)[n+]3ccccc3c1c1c3cccc[n+]3c(N3CCOCC3)n21
tgt: U251 CNS
TGI: > 100 µM

compound: O=C1CCC(NC(=O)Cc2ccc(O)cc2)C(=O)N1 (stereo not drawn)
tgt: U251 CNS
TGI: > 2500 µM

compound: C1=Cc2nc1c(-c1ccccc1)c1ccc([n-]1)c(-c1ccccc1)c1nc(c(-c3ccccc3)c3ccc([n-]3)c2-c2ccccc2)C=C1.[Zn+2]
tgt: U251 CNS
TGI: > 100 µM

compound: CC(C)C(NC(=O)C(CCCN=C(N)N)NC(=O)NC(Cc1ccccc1)C(=O)O)C(=O)NC(C=O)CCCN=C(N)N (stereo not drawn) ({Phe-CO}-Arg-Val-Arg-aldehyde; configuration not given here)
tgt: U251 CNS
TGI: > 5 µM

compound: CCC(C)C(NC(=O)C(CCCCN)NC(=O)C(NC(=O)C(CCC(N)=O)NC(=O)C(CCCNC(=N)N)NC(C)=O)C(C)CC)C(=O)NC(Cc1c[nH]c2ccccc12)C(=O)NC(Cc1ccccc1)C(=O)NC(CCC(N)=O)C(=O)NC(CC(N)=O)C(=O)NC(CCCNC(=N)N)C(=O)NC(CCCNC(=N)N)C(=O)NC(CCSC)C(=O)NC(CCCCN)C(=O)NC(Cc1c[nH]c2ccccc12)C(=O)NC(CCCCN)C(=O)NC(CCCCN)C(N)=O (stereo not drawn)
tgt: U251 CNS
TGI: > 50 µM

compound: c1cc2[se][se]c3c4cccc5[se][se]c(c(c1)c23)c54
tgt: U251 CNS
TGI: > 100 µM
